# Assay: Caco-2 cell monolayer uptake and apparent permeability
# Format: in vitro ADME
# Test parameters: human, Caco-2, pH 7.4, printed values are Papp multiplied by 10^6, 25 μg/ml enalapril maleate, 37° C., Hanks buffer pH 7.4, + 0.1% intestinal juice (IJ), read-out: Papp × 10^6 (cm/s) ± s.d
Structures can show the parent of a compound that is named as a salt.

Compound | Papp at 3 h, 25 μg/ml
CCOC(=O)[C@H](CCc1ccccc1)N[C@@H](C)C(=O)N1CCC[C@H]1C(=O)O [ENL-solution, enalapril maleate] | 25.2 ×10⁻⁶ cm/s

----------
# Assay: Caco-2 cell monolayer uptake and apparent permeability
# Format: in vitro ADME
# Test parameters: human, Caco-2, pH 7.4, printed values are Papp multiplied by 10^6, 25 μg/ml enalapril maleate, 37° C., Hanks buffer pH 7.4, no intestinal juice, read-out: Papp × 10^6 (cm/s) ± s.d
Counter-ions that a name gives are not always drawn.

Molecule | Papp at 3 h, 25 μg/ml [×10⁻⁶ cm/s]
CCOC(=O)[C@H](CCc1ccccc1)N[C@@H](C)C(=O)N1CCC[C@H]1C(=O)O [ENL-solution, enalapril maleate] | 25.1

----------
# Assay: Caco-2 cell monolayer uptake and apparent permeability
# Format: in vitro ADME
# Test parameters: human, Caco-2, pH 7.4, 25 μg/ml enalapril maleate, no intestinal juice, read-out: apparent permeability (Papp)
Counter-ions that a name gives are not always drawn.

Compound | Value units | Papp at 3 h, 25 μg/ml
CCOC(=O)[C@H](CCc1ccccc1)N[C@@H](C)C(=O)N1CCC[C@H]1C(=O)O [ENL-solution, enalapril maleate] | ×10⁻⁶ cm/s | 25.1

Taken from patent US20130115294A1.
